target: Tyrosine-protein phosphatase non-receptor type 11 (Homo sapiens, UniProt Q06124); experiment: Inhibition of SHP2 (unknown origin) using pNPP as substrate by spectrophotometer analysis

{"Smiles text": "C=C/C(=C/C(=O)C[C@H](C)C[C@@H](C)CC[C@H](O)[C@H](C)C(=O)C[C@@H](O)[C@H](C)[C@@H](C)OC(=O)C[C@@H](O)/C(C(=O)O)=C(\\C)C(=O)O)CC", "IC50, µM": 2.9}

* * *

molecular target: Tyrosine-protein phosphatase non-receptor type 11 (Homo sapiens, UniProt Q06124); assay: Inhibition of human His6-tagged wild type SHP2 PTP domain using pNPP as substrate by absorbance based analysis

{"Smiles text": "C=CC(=O)Nc1ccnc2ccccc12", "Assay target": "Tyrosine-protein phosphatase non-receptor type 11 (Homo sapiens, UniProt Q06124)", "Value units": "µM", "IC50": 35}

* * *

Molecular target: UniProtKB Q06124
Sequence (Q06124 whole entry): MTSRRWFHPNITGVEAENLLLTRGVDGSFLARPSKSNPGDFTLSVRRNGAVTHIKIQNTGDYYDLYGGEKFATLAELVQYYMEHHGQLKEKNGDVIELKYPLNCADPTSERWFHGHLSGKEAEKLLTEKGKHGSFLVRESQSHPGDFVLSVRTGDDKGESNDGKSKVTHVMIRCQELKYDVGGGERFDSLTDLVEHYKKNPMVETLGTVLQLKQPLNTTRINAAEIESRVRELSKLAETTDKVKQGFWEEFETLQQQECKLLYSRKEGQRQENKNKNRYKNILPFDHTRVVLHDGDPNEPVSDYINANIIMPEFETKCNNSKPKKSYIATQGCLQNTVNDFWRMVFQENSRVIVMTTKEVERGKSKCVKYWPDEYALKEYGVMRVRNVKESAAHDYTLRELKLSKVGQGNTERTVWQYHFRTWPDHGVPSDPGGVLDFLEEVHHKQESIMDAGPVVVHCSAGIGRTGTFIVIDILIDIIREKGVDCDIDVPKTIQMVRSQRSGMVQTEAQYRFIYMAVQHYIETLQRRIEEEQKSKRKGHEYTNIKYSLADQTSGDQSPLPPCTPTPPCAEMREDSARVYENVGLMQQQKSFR
Assay: Inhibition of SHP2 (unknown origin)
pIC50: −log10 of the molar value.
Readout name: pIC50

{"Smiles text": "O=C(O)c1ccc(O)c(-c2nnc3n(Cc4ccccc4Cl)c(=O)c4ccccc4n23)c1", "Assay target": "UniProtKB Q06124", "Observed measurement": 4.68}
{"Smiles text": "COc1cccc(-c2nnc3n(Cc4ccc(C(=O)N5CCC[C@H]5C(=O)O)cc4Cl)c(=O)c4ccccc4n23)c1O", "Assay target": "UniProtKB Q06124", "Observed measurement": 4.72}
{"Smiles text": "O=C1C=CC(=O)C(c2cc(Cl)ccc2Cl)=C1", "Assay target": "UniProtKB Q06124", "Observed measurement": 6.40}
